# Test system: 786-0 renal
# method_notes: NCI tumour cell line growth inhibition, 48 h
Kindly supply the reported log10 of TGI values for the records listed here.
// stored as log10 of TGI expressed in µM

Task: # query: log10 of TGI of entry O=C1C=CC(=O)c2c(O)c(CO)c(CO)c(O)c21
Result: -0.14

Task: # query: log10 of TGI of entry CCOC(=O)c1ccc2c(c1)c1c(C)c3ccncc3c(C)c1n2C
Result: 0.31

Task: # query: log10 of TGI of entry CCN1CCN(c2cc(C)nc(N(CCCNc3ccnc4cc(Cl)ccc34)Cc3cccs3)n2)CC1
Result: 0.55

Task: # query: log10 of TGI of entry CCN(CC)c1ccc(N=O)cc1
Result: 1.37

Task: # query: log10 of TGI of entry CC12OC(=O)[C@@]3(O)CCC4C(C[C@H]5O[C@]56CC=CC(=O)[C@]46C)C45OC[C@H]6C(=O)O[C@@H]1C[C@@]6(C)[C@H](C4=O)C23O5 (stereo partly specified)
Result: 0.35

Task: # query: log10 of TGI of entry COc1cc2c(cc1O)N=C[C@@H]1C[C@@H](F)CN1C2=O
Result: 1.09

meta.source: PubChem BioAssay (NCI)
